Cited source: patent US12312359B2

- measurementTarget: biotinylated wild-type menin and MLL-AF9 fusion protein (menin/MLL binding) (Homo sapiens, UniProt O00255)
- Construct: MLL-AF9-FLAG: HEK293 cells, used as cleared lysate
- Sequence (O00255 whole entry, the tested form may be a part): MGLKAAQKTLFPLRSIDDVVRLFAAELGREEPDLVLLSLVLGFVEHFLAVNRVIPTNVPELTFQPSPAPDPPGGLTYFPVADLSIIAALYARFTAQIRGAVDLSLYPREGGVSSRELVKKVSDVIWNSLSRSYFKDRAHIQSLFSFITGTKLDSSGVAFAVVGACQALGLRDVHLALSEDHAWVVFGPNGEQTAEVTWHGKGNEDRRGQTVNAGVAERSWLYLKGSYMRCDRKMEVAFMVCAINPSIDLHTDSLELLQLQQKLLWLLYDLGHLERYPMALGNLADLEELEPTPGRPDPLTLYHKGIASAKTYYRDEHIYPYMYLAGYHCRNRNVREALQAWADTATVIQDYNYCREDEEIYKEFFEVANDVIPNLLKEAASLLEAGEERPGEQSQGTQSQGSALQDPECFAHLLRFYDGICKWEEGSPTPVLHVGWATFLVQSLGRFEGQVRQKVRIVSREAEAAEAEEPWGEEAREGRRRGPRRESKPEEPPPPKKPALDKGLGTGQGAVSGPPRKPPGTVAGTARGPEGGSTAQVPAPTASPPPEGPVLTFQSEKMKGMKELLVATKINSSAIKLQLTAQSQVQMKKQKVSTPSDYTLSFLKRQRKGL
- protocolDescription: Assay 1: menin/MLL binding AlphaLISA assay, wild-type menin
- assayConditions: Table 30; column head does not say wild-type or mutated menin
Answer each item with its documented IC50.

CC(C)N(C)C(=O)c1cc(F)ccc1Oc1cncnc1N1CC2(CC(NC[C@H]3CC[C@H](NC(=O)OC(C)(C)C)CC3)C2)C1 | < 100 nM

# per-item lookup of IC50; items listed below
1. N#Cc1ccc(-c2cc(F)ccc2Oc2cncnc2N2CC3(CN(CC4(O)CCOCC4)C3)C2)c(C2CC2)c1
2. CP(C)(=O)c1cc(F)ccc1Oc1cncnc1N1CCC2(CCN(Cc3ccc4[nH]c(=O)[nH]c4c3)C2)C1 (stereo not shown)
3. N[C@H]1CC[C@H](CCN2CC3(C2)CN(c2ncncc2Oc2ccc(F)cc2-c2cccnc2C2CC2)C3)CC1

< 100 nM
100 to 1000 nM
< 100 nM
